# Test system: HeLa MZ
# protocol.details: LBPA endosome anti-LBPA integrated intensity (sum per cell), Z-score; higher = more LBPA staining
# condition.notes: compound concentration in added solution (µM; 5 µl added to 20 µl cells): 10; 18 h
Structures can show the parent of a compound that is named as a salt.
In this section we review reported LBPA endosome anti-LBPA integrated intensity (z-score) values for a set of compounds.
// return a plain number; no unit text

Reference set, count: 5
compound: CC(=O)O[C@H]1CC[C@@]2(C)C(=CC[C@@H]3[C@@H]2CC[C@]2(C)C(=O)CC[C@@H]32)C1 [Dehydroisoandosterone 3-acetate]
assay.result: -0.00203
--
compound: CC(=O)OCC(=O)[C@H]1CC[C@H]2[C@@H]3CC[C@H]4C[C@H](O)CC[C@]4(C)[C@H]3C(=O)C[C@]12C [Alfadolone acetate]
assay.result: 1.43
--
compound: OC(c1ccccc1)(c1ccccc1)C1CCNCC1
assay.result: -0.253
--
compound: O=c1c2ccccc2[se]n1-c1ccccc1
assay.result: -0.608
--
compound: CC(Cc1ccccc1)NCCC(c1ccccc1)c1ccccc1 (centres undefined) [Prenylamine lactate]
assay.result: 1.19

Here's the next entry for you.
// LBPA endosome anti-LBPA integrated intensity (z-score) lookup, key: C#CCN(C)[C@H](C)Cc1ccccc1 [Selegiline hydrochloride]
-1.62

----------
In this section we review reported whole-cell filipin (z-score) values for a set of compounds.
# Tested on: HeLa MZ
# protocol.details: whole-cell filipin (free cholesterol) integrated intensity, Z-score; higher = more cholesterol staining
# condition.notes: compound concentration in added solution (µM; 5 µl added to 20 µl cells): 10; 18 h
Where a name gives a salt, the structure may show the parent alone.
// return a plain number; no unit text

Reference set, count: 3
compound: CC(=O)[C@H]1CC[C@H]2[C@@H]3CC[C@H]4C[C@H](O)CC[C@]4(C)[C@H]3C(=O)C[C@]12C
whole-cell filipin (z-score): -0.273

compound: C[C@]12C[C@H]3S[C@H]3C[C@@H]1CC[C@@H]1[C@@H]2CC[C@]2(C)[C@@H](O)CC[C@@H]12 [Epitiostanol]
whole-cell filipin (z-score): 0.761

compound: CC(C)(C)NCC(O)c1cc(Cl)c(N)c(Cl)c1 (stereo not drawn) [Clenbuterol hydrochloride]
whole-cell filipin (z-score): -0.387

// whole-cell filipin (z-score) lookup, key: C=C1CC[C@@]2(O)[C@H]3Cc4ccc(O)c5c4[C@@]2(CCN3CC2CC2)[C@H]1O5 [Nalmefene hydrochloride]
-0.0735

// whole-cell filipin (z-score) lookup, key: CCOC(=O)c1cncn1[C@H](C)c1ccccc1 [Etomidate]
-0.784

----------
In this section we review reported whole-cell filipin (z-score) values for a set of compounds.
# System: HeLa MZ
# protocol.details: whole-cell filipin (free cholesterol) integrated intensity, Z-score; higher = more cholesterol staining
# condition.notes: compound concentration in added solution (µM; 5 µl added to 20 µl cells): 10; 18 h
Counter-ions that a name gives are not always drawn.
// return a plain number; no unit text

Reference set, count: 3
compound: CC(=O)OCC(=O)[C@H]1CC[C@H]2[C@@H]3CC[C@H]4C[C@H](O)CC[C@]4(C)[C@H]3C(=O)C[C@]12C [Alfadolone acetate]
target.or.system: HeLa MZ
whole-cell filipin (z-score): 0.815
--
compound: CNC(C)(C)Cc1ccccc1 [Mephentermine hemisulfate]
target.or.system: HeLa MZ
whole-cell filipin (z-score): -0.125
--
compound: CC(=O)OC1CN2CCC1CC2 (stereo not drawn) [Aceclidine Hydrochloride]
target.or.system: HeLa MZ
whole-cell filipin (z-score): 0.0664

// whole-cell filipin (z-score) lookup, key: C[C@]12CC[C@@H](O)C[C@H]1CC[C@@H]1[C@@H]2CC[C@]2(C)C(=O)CC[C@@H]12 [3-alpha-Hydroxy-5-beta-androstan-17-one]
0.519

// whole-cell filipin (z-score) lookup, key: "CN1C[C@H](CNC(=O)OCc2ccccc2)C[C@@H]2c3cccc4c3c(cn4C)C[C@H]21"
1.28

// whole-cell filipin (z-score) lookup, key: CN(C)C(=O)Oc1cc(OC(=O)N(C)C)cc(C(O)CNC(C)(C)C)c1 (stereo not drawn) [Bambuterol hydrochloride]
-0.434

// whole-cell filipin (z-score) lookup, key: N[C@@H]1C[C@H]1c1ccccc1 [Tranylcypromine hydrochloride]
-0.693

// whole-cell filipin (z-score) lookup, key: CC(C)[N+](C)(CCC(C(N)=O)(c1ccccc1)c1ccccc1)C(C)C [Isopropamide iodide]
-0.577
